MEASUREMENT_DESCRIPTION: Positive allosteric modulation of human TIR2/TIR3 expressed in PEAKrapid cells assessed as potentiation of sucrose-induced intracellular calcium influx by measuring sucrose EC50 at 30 uM measured for 120 secs by fluorescence based assay
QUANTITY_KIND: EC50 (mM)

Answered examples (4):
Kindly indicate its recorded EC50. Item: CC(C)(C)CC(=O)NC(C)(C)CC(=O)Nc1cncc(C(=O)O)c1N 8.1

Identify measured EC50 associated with CC(C)(CC(=O)Nc1cncc(C(=O)O)c1N)NC(=O)[C@@H]1CCC[C@H](N)C1 9.8

Give the measured EC50 for CC(C)(CC(=O)Nc1cncc(C(=O)O)c1N)NC(=O)C1(c2ccccc2)CC1 8.4

Consider the compound CC(C)(CC(=O)Nc1cncc(C(=O)O)c1N)NC(=O)C1CCNC1 (centres undefined) and give its recorded EC50. 8

(P) CC(C)(CC(=O)Nc1cncc(C(=O)O)c1N)NC(=O)C[C@@H]1CCNC1
(Q) CC(C)(CC(=O)Nc1cncc(C(=O)O)c1N)NC(=O)c1cccc(N)c1
(R) CC(C)(CC(=O)Nc1cncc(C(=O)O)c1N)NC(=O)[C@@H](N)C1CCCCC1
(S) CC(C)(CC(=O)Nc1cncc(C(=O)O)c1N)NC(=O)CC1(CN)CCCCC1
Rank entries according to their EC50, from the largest number down. Reply format: the labels, ordered as requested. Q, P, S, R

(I) CC(C)(CC(=O)Nc1cncc(C(=O)O)c1N)NC(=O)C1CCCCC1
(II) CC(C)(CC(=O)Nc1cncc(C(=O)O)c1N)NC(=O)c1cccc2c1CCCC2
(III) CC(C)(CC(=O)Nc1cncc(C(=O)O)c1N)NC(=O)C1CCNCC1
Your job: order these 3 records by EC50, ascending. Please respond by ranking the labels in the order requested. I, II, III

(P) CC(C)C[C@H](NC(=O)[C@@H](N)C1CCCCC1)C(=O)NC(C)(C)CC(=O)Nc1cncc(C(=O)O)c1N
(Q) CCCCCCCC(=O)NC(C)(C)CC(=O)Nc1cncc(C(=O)O)c1N
Which value of EC50 is smaller, the one for P or the one for Q ? Pick one; state its label. P

(a) CC(C)(CC(=O)Nc1cncc(C(=O)O)c1N)NC(=O)C[C@H]1CCNC1
(b) CC(C)(CC(=O)Nc1cncc(C(=O)O)c1N)NC(=O)c1ccccc1
Lab note: check whether a or b shows the higher recorded EC50. Please reply using the label of the selected record. b

(P) CC(C)(CC(=O)Nc1cncc(C(=O)O)c1N)NC(=O)[C@H](N)C1CCCCC1
(Q) CC(C)C[C@H](NC(=O)[C@@H](NC(=O)OC(C)(C)C)C1CCCCC1)C(=O)NC(C)(C)CC(=O)Nc1cncc(C(=O)O)c1N
(R) CCCCCCCCCCCC(=O)NC(C)(C)CC(=O)Nc1cncc(C(=O)O)c1N
(S) CC(C)(CC(=O)Nc1cncc(C(=O)O)c1N)NC(=O)[C@@H](NC(=O)[C@@H](N)C1CCCCC1)C1CCCCC1
Sort low-to-high on EC50, please. Provide the ranking by listing each label in its place in the requested order. S, Q, P, R
(S: 2.5 mM, Q: 3.7 mM, P: 7.7 mM, R: 11.8 mM)

(I) CC(C)(CC(=O)Nc1cncc(C(=O)O)c1N)NC(=O)C(C)(C)C
(II) CC(C)(CC(=O)Nc1cncc(C(=O)O)c1N)NC(=O)CC1CCCCC1
Between the two listed entries I and II , which has its EC50 at the higher number? Give the label of your selection. I

(I) CC(C)(CC(=O)Nc1cncc(C(=O)O)c1N)NC(=O)[C@@H](N)c1ccccc1
(II) CCCCCC(=O)NC(C)(C)CC(=O)Nc1cncc(C(=O)O)c1N
Exercise: compare I and II ; which one has the greater EC50? Reply briefly: the label of your chosen item. I

(I) CC(C)(CC(=O)Nc1cncc(C(=O)O)c1N)NC(=O)CC[C@@H](N)Cc1ccccc1
(II) CC(C)(CC(=O)Nc1cncc(C(=O)O)c1N)NC(=O)CC1CCCC1
Of I and II , whose reported EC50 is numerically smaller? I would appreciate it if you answered with the label of your choice. II

----------
MEASUREMENT_DESCRIPTION: Positive allosteric modulation of human TIR2/TIR3 expressed in PEAKrapid cells assessed as potentiation of sucrose-induced intracellular calcium influx by measuring sucrose EC50 at 30 uM measured for 120 secs by fluorescence based assay
pEC50: −log10 of the molar value.
QUANTITY_KIND: pEC50

Worked cases, pEC50 given:
Quickly give me recorded pEC50 for CC(C)CC(=O)NC(C)(C)CC(=O)Nc1cncc(C(=O)O)c1N 2.14

Tell me pEC50 reported for CC[C@H](C)[C@H](NC(=O)[C@@H](N)C1CCCCC1)C(=O)NC(C)(C)CC(=O)Nc1cncc(C(=O)O)c1N 2.25

Give reported pEC50 value for CC(C)C(=O)NC(C)(C)CC(=O)Nc1cncc(C(=O)O)c1N 2.10

Kindly indicate its recorded pEC50. Item: CC(C)(CC(=O)Nc1cncc(C(=O)O)c1N)NC(=O)CCC1CCCCC1 1.96

Give the value of pEC50 reported for the following: CC(C)C[C@H](N)C(=O)NC(C)(C)CC(=O)Nc1cncc(C(=O)O)c1N 2.24

(A) CC(C)(CC(=O)Nc1cncc(C(=O)O)c1N)NC(=O)C1(N)CCCCC1
(B) CC[C@H](C)[C@H](NC(=O)[C@@H](NC(=O)OC(C)(C)C)C1CCCCC1)C(=O)NC(C)(C)CC(=O)Nc1cncc(C(=O)O)c1N
Which numeric pEC50 is bigger, that of A or that of B ? // output: label of the selected item B
(B: 2.48, A: 2.12)

----------
MEASUREMENT_DESCRIPTION: Positive allosteric modulation of human TIR2/TIR3 expressed in PEAKrapid cells assessed as potentiation of sucrose-induced intracellular calcium influx by measuring sucrose EC50 at 30 uM measured for 120 secs by fluorescence based assay
QUANTITY_KIND: EC50 (mM)

Read the entry CC(C)(CC(=O)Nc1cncc(C(=O)O)c1N)NC(=O)[C@H]1CC[C@@H](N)CC1 and write its reported EC50. 7.3

State, in one line, measured EC50 of CC(C)(CC(=O)Nc1cncc(C(=O)O)c1N)NC(=O)c1ccc(N)cc1 8.9

Using the record for CC(C)[C@H](N)C(=O)NC(C)(C)CC(=O)Nc1cncc(C(=O)O)c1N , state its measured EC50. 9.3

In one line, give reported EC50 of the entry CCCCCCCC/C=C\CCCCCCCC(=O)NC(C)(C)CC(=O)Nc1cncc(C(=O)O)c1N . 9.9

Identify measured EC50 corresponding to CC(C)(CC(=O)Nc1cncc(C(=O)O)c1N)NC(=O)[C@@H](N)CC1CCCCC1 7.3

Give recorded EC50. CC(C)(CC(=O)Nc1cncc(C(=O)O)c1N)NC(=O)[C@H]1CC[C@H](N)CC1 7.8

Note EC50 for the compound shown: CCCCCCC(=O)NC(C)(C)CC(=O)Nc1cncc(C(=O)O)c1N 7.8
